The measured values listed here are drawn from patent US20210395344A1.

Target: T1, SARS-CoV-2 Spike Glycoprotein S1 (subunit 1) (SARS-CoV-2, UniProt P0DTC2 16-685)
T1 construct: also called S1 Monomer; SARS-CoV-2 S1
Experiment: column Inhibitor IC50 (assay not explained)
Checkbox rule: IC50 lower than 20 nM = class 1; IC50 not lower than 20 nM = class 0.

Binder	Cat
1-21 (antibody, V domains shown) VH: EVQLLESGGGLVQPGGSLRLSCAASGFTFSSYTMSWVRQAPGKGLEWVSIISGSGGSTYYADSVKGRFTISRDNSKNTLYLQMNSLRAEDTAVYYCAREGYRDYLWYFDLWGQGTLVTVSS VL: QSALTQPASVSGSPGQSITISCTGTSSDVGSNNLVSWYQQHPGKAPKLMIYEGNKRPSGVSNRFSGSKSGNTASLTISGLQAEDEADYYCCSYAGSVVFGGGTKLTVL	class 1
1-9 (antibody, V domains shown) VH: EVQLLESGGGLVQPGGSLRLSCAASGFTFSSYDMSWVRQAPGKGLEWVSVISGSGGSTYYADSVKGRFTISRDNSKNTLYLQMNSLRAEDTAVYYCAKGPLVGWYFDLWGQGTLVTVSS VL: QSALTQPASVSGSPGQSITISCTGTSSDVGDYNLVSWYQQHPGKAPKLMIYEGSNRPSGVSNRFSGSKSGNTASLTISGLQAEDEADYYCCSYAGSSSFVVFGGGTKLTVL	class 0
1-52 (antibody, V domains shown) VH: EVQLLESGGGLVQPGGSLRLSCAASGFTFSNYAMSWVRQAPGKGLEWVSAISGSAGSTYYADSVKGRFTISRDNSKNTLYLQMNSLRAEDTAVYYCARVRQGLRRTWYYFDYWGQGTLVTVSS VL: QSALTQPASVSGSPGQSITISCTGTSSDVGSSNLVSWYQQHPGKAPKLMIYEGSKRPSGVSNRFSGSKSGNTASLTISGLQAEDEADYYCCSYAGSLYVFGGGTKLTVL	class 0
1-3 (antibody, V domains shown) VH: EVQLLESGGGLVQPGGSLRLSCAASGFTFSSQAMSWVRQAPGKGLEWVSAISGSGGGTYYADSVKGRFTISRDNSKNTLYLQMNSLRAEDTAVYYCAKDRRFGEFDPWGQGTLVTVSS VL: QSALTQPASVSGSPGQSITISCTGISSDVGSYNLVSWYQQHPGKAPKLMIYEGTKRPSGVSNRFSGSKSGNTASLTISGLQAEDEADYYCCSYAGSSSFVVFGGGTKLTVL	class 1
1-30 (antibody, V domains shown) VH: EVQLLESGGGLVQPGGSLRLSCAASGFTFSSYAMTWVRQAPGKGLEWVSAISGSGGSTFYADSVKGRFTISRDNSKNTLYLQMNSLRAEDTAVYYCTRPPYGDYGDYWGQGTLVTVSS VL: QSALTQPASVSGSPGQSITISCTGTSRDVGSYNLVSWYQQHPGKAPKLMIYEGTKRPSGVSNRFSGSKSGNTASLTISGLQAEDEADYYCCSYAGSRTPVVFGGGTKLTVL	class 0
